FYI, the data here is from patent US20190201542A1.

Biological target: T1, human DLL3 (human, UniProt Q9NYJ7 27-492, limits assumed)
T1 construct: also called hDLL3; DLL3 protein
T1 sequence: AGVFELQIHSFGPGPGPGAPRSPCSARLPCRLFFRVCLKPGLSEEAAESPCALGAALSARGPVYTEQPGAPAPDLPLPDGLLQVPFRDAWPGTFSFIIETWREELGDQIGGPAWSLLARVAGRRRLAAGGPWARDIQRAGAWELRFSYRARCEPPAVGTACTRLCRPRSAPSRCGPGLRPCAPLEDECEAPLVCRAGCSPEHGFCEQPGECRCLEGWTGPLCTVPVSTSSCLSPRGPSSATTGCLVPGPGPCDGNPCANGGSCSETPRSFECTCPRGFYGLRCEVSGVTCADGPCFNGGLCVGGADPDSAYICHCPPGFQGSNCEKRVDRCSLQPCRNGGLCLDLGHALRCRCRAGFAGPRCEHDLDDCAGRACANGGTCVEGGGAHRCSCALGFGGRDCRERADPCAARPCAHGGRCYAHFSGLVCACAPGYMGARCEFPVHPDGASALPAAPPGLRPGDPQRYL
Assay: screen on immobilized hDLL3 or h293-hDLL3 cells
property_measured: binding result

>>> meas_value("SC16.104 (antibody, V domains shown, murine mAb) VH: QVQLKESGPDLVQPSQTLSLTCTVSGFSLTFYGVHWVRQPPGKGLEWVGTMGWDDKKYYNSALKSRLSISRDTSKNQVFLKLSSLQTEDTAMYYCTRGGTGFDYWGQGTTLTVSS VL: QIVLSQSPAILSASPGEKVTMTCRASSSVSYIHWYRQKPGSSPKPWIYATSNLASGVPARFSGSGSGTSYSLTISRVEAEDAATYYCQQWSSNPPTFGAGTKLELK")
"binds"
>>> meas_value("SC16.56 (antibody, V domains shown, murine mAb) VH: QIQLVQSGPELKKPGETVKISCKASGYTFTNYGMNWVKQAPGKGLKWMAWINTYTGEPTYADDFKGRFAFSLETSASTASLQIINLKNEDTATYFCARIGDSSPSDYWGQGTTLTVSS VL: SIVMTQTPKFLLVSAGDRVTITCKASQSVSNDVVWYQQKPGQSPKLLIYYASNRYTGVPDRFAGSGYGTDFSFTISTVQAEDLAVYFCQQDYTSPWTFGGGTKLEIR")
"binds"
>>> meas_value("SC16.109 (antibody, V domains shown, murine mAb) VL: QIVLTQSPAIMSASPGEKVTMTCSASSSVSYMYWYQQKPGSSPRLLIYDTSNLASGVPVRFSGSGSGTSFSLTISRMEAEDTATYYCQEWSGNPLTFGDGTKLELK V domain: QIQLVQSGPELKKPGETVKISCKASGYTFTNYGMNWVKQAPGKGLKWMGWINTYTGEPAYADDFKGRFAFSLETSASAAYLQINNLKNEDTATFFCANMRPTRGFAYWGQGTLGTVSA")
"binds"
